System: MAP kinase
Assay: "In Vivo" activity (whole cell MAP kinase assay)
Type: cell-based
Details: Table 2
measured_metric: pIC50
pIC50 is a log-scale quantity: -log10 of the concentration expressed in molar.

Incoming: Given the entry Cc1cc(I)ccc1Nc1cc(F)ccc1C(=O)NO , report its measured pIC50.
Outgoing: 7.30

Incoming: Given the entry Cc1cc(I)ccc1Nc1c(C(=O)NO)cc(Br)c(F)c1F , report its measured pIC50.
Outgoing: 7.52

Incoming: Given the entry C=C(C)CONC(=O)c1ccc(F)c(F)c1Nc1ccc(I)cc1C [Example 66a] , report its measured pIC50.
Outgoing: 6.89

Incoming: Given the entry CC=CCONC(=O)c1cc(Br)c(F)c(F)c1Nc1ccc(I)cc1C [Example 24a] , report its measured pIC50.
Outgoing: 6.92

Incoming: Given the entry Cc1cc(I)ccc1Nc1c(C(=O)NOC2CCC2)ccc(F)c1F [Example 50a] , report its measured pIC50.
Outgoing: 6.66

Incoming: Given the entry Cc1cc(Br)ccc1Nc1cc(F)ccc1C(=O)NO , report its measured pIC50.
Outgoing: 5.52

Incoming: Given the entry Cc1cc(I)ccc1Nc1c(C(=O)NOCC#Cc2ccccc2F)ccc(F)c1F [Example 36a] , report its measured pIC50.
Outgoing: 7.15

Incoming: Given the entry Cc1cc(I)ccc1Nc1c(C(=O)NOC(C)C)ccc(F)c1F [Example 47a] , report its measured pIC50.
Outgoing: 6.89

Incoming: Given the entry Cc1cc(I)ccc1Nc1cc(F)ccc1C(=O)NOCc1ccoc1 [Example 20a] , report its measured pIC50.
Outgoing: 6.77
